Tested on: Candida albicans
Assay: Ratio of fluconazole MIC to compound MIC against amphotericin-B resistant Candida albicans after 24 to 48 hrs by broth microdilution technique
Type: functional
Field: Ratio. Provide a value for each of the molecules that follow.
Answers are plain numbers.

Here's what some known entries look like.
O=C1/C(=C/c2ccccc2[N+](=O)[O-])SC(=S)N1Cc1ccncc1 | 2
CCCCSC(=S)NCc1ccncc1 | 5
C=CCSC(=S)NCc1ccncc1 | 1
O=C1/C(=C/c2ccco2)SC(=S)N1Cc1ccncc1 | 1

Give me Ratio for each of these molecules, listed below.
1. O=C1/C(=C/c2ccncc2)SC(=S)N1Cc1ccncc1
2. O=C1CSC(=S)N1Cc1ccncc1
3. CCCSC(=S)NCc1ccncc1
4. CCSC(=S)NCc1ccncc1

output:
[2, 2, 2, 5]

input: What is its Ratio for Candida albicans? Entry: `O=C1/C(=C/c2cccnc2)SC(=S)N1Cc1ccncc1`
output: 1

Data credit: ChEMBL document CHEMBL3217590
